- System: methicillin-susceptible Staphylococcus aureus (MSSA)
- EXPERIMENT: Antibacterial assay (Test C), broth microdilution MIC against MSSA
- Assay type: cell-based
- ASSAY CONTEXT: Staphylococcus aureus, MSSA, minimal inhibitory concentration, broth microdilution, growth completely inhibited; read-out: MSSA MIC data
READOUT KIND: MIC (µg/mL)

Worked examples follow.
{"CHEM SMILES": "CC(C)(C)c1ccc(-c2cc(Cn3ccnc3)cc(Cn3ccnc3)c2)cc1", "MEASURED ON": "methicillin-susceptible Staphylococcus aureus (MSSA)", "NUMERIC RESULT": 4}
{"CHEM SMILES": "CC(C)(C)c1ccc(-c2cc(CNC(=N)N)cc(-c3ccc(C(C)(C)C)cc3)c2)cc1", "MEASURED ON": "methicillin-susceptible Staphylococcus aureus (MSSA)", "NUMERIC RESULT": 4}
{"CHEM SMILES": "CC(C)(C)c1ccc(-c2cc(CNC(=N)N)cc(CNC(=N)N)c2)cc1", "MEASURED ON": "methicillin-susceptible Staphylococcus aureus (MSSA)", "NUMERIC RESULT": 16}
{"CHEM SMILES": "CC(C)(C)c1ccc(-c2cccc(OCCn3ccnc3)c2)cc1", "MEASURED ON": "methicillin-susceptible Staphylococcus aureus (MSSA)", "NUMERIC RESULT": 4}
{"CHEM SMILES": "COCCOCCOCCOCCOc1cc(CNC(=N)N)cc(-c2ccc(C(C)(C)C)cc2)c1", "MEASURED ON": "methicillin-susceptible Staphylococcus aureus (MSSA)", "NUMERIC RESULT": 2}
{"CHEM SMILES": "CC(C)(C)c1csc(-c2ccc(CN=C(N)N)cc2)n1", "MEASURED ON": "methicillin-susceptible Staphylococcus aureus (MSSA)", "NUMERIC RESULT": 4}

(1) CC(C)(C)OC(=O)NC(=N)NCc1nc(-c2ccc(C(C)(C)C)cc2)cs1
(2) CN(C)Cc1ccc(-c2ccc(C(C)(C)C)cc2)cc1CN=C(N)N
Q) From the items above, decide which of 1 and 2 has the lower MIC reading. Your answer should be the label attached to the chosen record.
A) 2

(A) CC(C)(C)c1ccc(-c2cccc(CNNC(=N)N)c2)cc1
(B) CC(C)(C)c1ccc(-c2cc(CNC(=N)N)cc(CC(Br)Br)c2)cc1
(C) O=C(Nc1nccs1)c1ccc(-c2cccc(Cn3ccnc3)c2)cc1
(D) C[N+](C)(C)c1ccc(-c2ccc(-c3ccccc3)cc2)cc1.[I-]
Q) Thanks in advance: please rank these 4 entries by MIC, highest to lowest. Show the ranking through the labels, in the order asked for.
A) B, D, C, A
(B: 32 µg/mL, D: 8 µg/mL, C: 4 µg/mL, A: 2 µg/mL)

(1) CC(C)(C)c1ccc(-c2cc(CC(Br)Br)cc(Cn3ccnc3)c2)cc1
(2) CC(C)(C)c1ccc(-c2cccc(C(=O)NC(=N)N)c2)cc1
Q) Returns: the argument ( 1 or 2 ) having the larger MIC. Your answer should be the label attached to the chosen record.
A) 2
(2: 4 µg/mL, 1: 2 µg/mL)

---

- Test system: methicillin-susceptible Staphylococcus aureus (MSSA)
- EXPERIMENT: Antibacterial assay (Test C), broth microdilution MIC against MSSA
- Assay type: cell-based
- ASSAY CONTEXT: Staphylococcus aureus, MSSA, minimal inhibitory concentration, broth microdilution, growth completely inhibited; read-out: MSSA MIC data
READOUT KIND: MIC (µg/mL)

{"COMPOUND": "CC(C)(C)c1cccc(-c2ccccc2CCN)c1", "MIC (µg/mL)": 32}

(a) COc1cc(OC(F)(F)F)ccc1-c1cc(CN=C(N)N)cc(-c2ccc(C(C)(C)C)cc2)c1
(b) CC(C)(C)c1ccc(-c2ccnc(CN=C(N)N)c2)cc1
(c) CC(C)(C)c1ccc(-c2ccc(CO)c(Cn3ccnc3)c2)cc1
Q) Ascending sort, MIC. Answer by listing the labels in the order asked for.
A) a, c, b

---

- Tested on: methicillin-susceptible Staphylococcus aureus (MSSA)
- EXPERIMENT: Antibacterial assay (Test C), broth microdilution MIC against MSSA
- Format: cell-based
- ASSAY CONTEXT: Staphylococcus aureus, MSSA, minimal inhibitory concentration, broth microdilution, growth completely inhibited; read-out: MSSA MIC data
READOUT KIND: MIC (µg/mL)

{"CHEM SMILES": "Cc1cc(C)cc(-c2cccc(CCN)c2)c1", "UNIT TEXT": "µg/mL", "MIC": 64}
{"CHEM SMILES": "CC(C)(C)c1ccc(-c2cccc(/C=N/NC(=N)N)c2)cc1", "UNIT TEXT": "µg/mL", "MIC": 2}
{"CHEM SMILES": "COc1cc(-c2ccc(C(C)(C)C)cc2)cc(Cn2ccnc2)c1OC", "UNIT TEXT": "µg/mL", "MIC": 2}

(A) CC(C)(C)c1ccc(-c2ccc(CNC(=N)N)cc2)cc1
(B) COc1cc(CN2CCN(C)CC2)cc(-c2ccc(C(C)(C)C)cc2)c1OC
(C) CC(C)(C)c1ccc(-c2ccc(-c3cccc(CNC(=N)N)c3)cc2)cc1
Q) List from greatest to least MIC. Ranked list of labels, please, in the requested order.
A) A, B, C
(A: 4 µg/mL, B: 2 µg/mL, C: 1 µg/mL)

---

- Tested on: methicillin-susceptible Staphylococcus aureus (MSSA)
- EXPERIMENT: Antibacterial assay (Test C), broth microdilution MIC against MSSA
- Assay type: cell-based
- ASSAY CONTEXT: Staphylococcus aureus, MSSA, minimal inhibitory concentration, broth microdilution, growth completely inhibited; read-out: MSSA MIC data
READOUT KIND: MIC (µg/mL)

{"COMPOUND": "CC(C)(C)c1csc(-c2cccc(CN=C(N)N)c2)n1", "MIC (µg/mL)": 4}
{"COMPOUND": "COc1cc(-c2ccc(C(C)(C)C)cc2)cc(CNC(=N)N)c1OC", "MIC (µg/mL)": 2}
{"COMPOUND": "CC(C)(C)c1ccc(-c2ncc(CNC(=N)N)s2)cc1", "MIC (µg/mL)": 8}
{"COMPOUND": "CC(C)(C)c1cccc(-c2cccc(CNC(=N)N)c2)c1", "MIC (µg/mL)": 2}
{"COMPOUND": "CC(C)(C)c1ccc(-c2cccc(CN)c2)cc1", "MIC (µg/mL)": 16}

(I) COC(=O)c1ccc(-c2ccc(C(C)(C)C)cc2)cc1Cn1ccnc1
(II) CC(C)(C)c1ccc(-c2cccc(Cn3ccnc3)c2)cc1
(III) CC(C)(C)c1ccc(-c2cc(CNC(=N)N)cc(-c3cscn3)c2)cc1
(IV) CC(C)(C)c1ccc(-c2cccc(Cn3cncn3)c2)cc1
(V) CC(C)(C)c1ccc(-c2ccc(C(=O)Nc3nccs3)c(Cn3ccnc3)c2)cc1
Q) Hey, quick one: sort these by MIC, largest value first please. Please list the labels according to the requested order.
A) V, IV, II, III, I
(V: 32 µg/mL, IV: 16 µg/mL, II: 8 µg/mL, III: 2 µg/mL, I: 1 µg/mL)

---

- Test system: methicillin-susceptible Staphylococcus aureus (MSSA)
- EXPERIMENT: Antibacterial assay (Test C), broth microdilution MIC against MSSA
- Assay type: cell-based
- ASSAY CONTEXT: Staphylococcus aureus, MSSA, minimal inhibitory concentration, broth microdilution, growth completely inhibited; read-out: MSSA MIC data
READOUT KIND: MIC (µg/mL)

Examples with their reported MIC follow.
{"COMPOUND": "C[N+](C)(C)c1cccc(-c2cccc(-c3cccc(-c4ccccc4)c3)c2)c1", "MEASURED ON": "methicillin-susceptible Staphylococcus aureus (MSSA)", "NUMERIC RESULT": 1}
{"COMPOUND": "CC(C)(C)c1ccc(-c2ccc(CCN)cc2)cc1", "MEASURED ON": "methicillin-susceptible Staphylococcus aureus (MSSA)", "NUMERIC RESULT": 4}

(1) CC(NC(=N)N)c1cccc(-c2ccc(C(C)(C)C)cc2)c1 (stereo not drawn)
(2) CC(C)(C)c1ccc(-c2cc(Cn3ccnc3)cc([N+](=O)[O-])c2)cc1
Q) Look at 1 and 2 . Which one has the lower recorded MIC number? Refer to your chosen item by its label in the answer.
A) 1

// data source = patent US20150011559A1
